B1: IQUB (parent)
chain: CRNCINLQNEAQKRESFLKYKCLL

# Variants of: B1
# PROCEDURE TEXT: protein stability index of a GFP-peptide fusion (GPS, HEK-293T) (PSI 1-6); higher = more stable;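 also: lentivirally expressed fusions sorted by FACS into six bins by GFP to DsRed ratio, PSI derived from sequencing read proportions per bin multiplied by bin number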
# CONDITION NOTES: c terminus: a fixed tail appended
Listing of recorded protein stability index by entry.
READOUT NAME: protein stability index

SEQUENCE: CRNCINLQNEAQKRESFLKYYCLL [K21Y]
RESULT VALUE: 1.51

SEQUENCE: LRNCINLQNEAQKRESFLKYKCLL [C1L]
RESULT VALUE: 1.72

SEQUENCE: CMNCINLQNEAQKRESFLKYKCLL [R2M]
RESULT VALUE: 1.89

SEQUENCE: CRNCINLQNEAQKRESFLKYKCLG [L24G]
RESULT VALUE: 1.37

SEQUENCE: CRCCINLQNEAQKRESFLKYKCLL [N3C]
RESULT VALUE: 1.61
